assay: Epimastigote growth inhibition; assay type: cell-based; conditions: Trypanosoma cruzi
Exercise: for every item that follows, state its recorded selectivity ratio at 72 h.

# per-item lookup of selectivity ratio at 72 h; items listed below
1. N#Cc1cnc2ccc(Cl)cc2c1Nc1cccc(Br)c1
2. N#Cc1cnc2ccc(Cl)cc2c1Nc1ccc(F)cc1
3. N#Cc1cnc2ccc(Cl)cc2c1Nc1ccccc1
4. O=C(Cn1ccnc1[N+](=O)[O-])NCc1ccccc1 [Bz, benznidazole, reference compound]

["> 4.7", "> 11.4", "> 5.68", "> 17.9"]

Source of measurements: paper PMC4971285
